measured-on: T1, recombinant human TIGIT (Sino Biological) (human, UniProt Q495A1 22-138)
T1 construct: Bought protein; NP_776160.2; also called human TIGIT antigen; hTIGIT
T1 sequence: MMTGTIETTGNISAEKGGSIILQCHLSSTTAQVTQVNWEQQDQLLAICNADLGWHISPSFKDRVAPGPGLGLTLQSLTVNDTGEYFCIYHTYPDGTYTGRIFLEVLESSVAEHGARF
procedure-details: SPR single cycle kinetics; KD divided by KD of the VH0/Vκ0 chimeric antibody;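 also: biacore T200 SPR at 25 °C, IgG captured on anti-human chip, TIGIT analyte in four rising concentrations, 210 s association each, 900 s dissociation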
For each of the binders below, state its Relative KD.
Form field (numeric): enter value without unit.

Relative KD recorded for this binder, 7A6 VH5/Vκ4 humanized antibody (human IgG1, kappa) (antibody, V domains shown, Tested as IgG in supernatant of transiently transfected HEK293 EBNA cells) VH: QVQLQESGPGLVKPSQTLSLTCTVTGYSITSDYAWNWIRQPPGKGLEWMGYISYSGSARYNPSLKSRVTISVDTSKNQFSLKLSSVTAADTAVYYCARKGYPAYFAYWGQGTLVTVSS VL: DIQMTQSPSSLSASVGDRVTITCRASQDVSTAVAWYQQKPGQAPRLLIYSASYRYTGVPDRFSGSGSGTDFTLTISSLQAEDVAVYYCQHHYSTPYTFGQGTKLEIKR , is 2.33

Lab book: Relative KD of 7A6 VH1/Vκ2 humanized antibody (human IgG1, kappa) (antibody, V domains shown, Tested as IgG in supernatant of transiently transfected HEK293 EBNA cells) VH: DVQLQESGPGLVKPSQTLSLTCTVTGYSITSDYAWNWIRQPPGKGLEWMGYISYSGSARYNPSLKSRITISRDTSMNQFSLKLNSVTAEDTATYYCARKGYPAYFAYWGQGTLVTVSS VL: DIVMTQSPSSLSASVGDRVSITCKASQDVSTAVAWYQQKPGQAPRLLIYSASYRYTGVPDRFTGSGSGTDFTLTISSLQAEDVAVYYCQHHYSTPYTFGQGTKLEIKR noted as 1.24
